Just for reference, patent US4910214A is where these values come from.

As an illustration, consider measured pIC50 for compounds on α2 -receptors (Rattus norvegicus, UniProt P22909).
Sequence (P22909 whole entry): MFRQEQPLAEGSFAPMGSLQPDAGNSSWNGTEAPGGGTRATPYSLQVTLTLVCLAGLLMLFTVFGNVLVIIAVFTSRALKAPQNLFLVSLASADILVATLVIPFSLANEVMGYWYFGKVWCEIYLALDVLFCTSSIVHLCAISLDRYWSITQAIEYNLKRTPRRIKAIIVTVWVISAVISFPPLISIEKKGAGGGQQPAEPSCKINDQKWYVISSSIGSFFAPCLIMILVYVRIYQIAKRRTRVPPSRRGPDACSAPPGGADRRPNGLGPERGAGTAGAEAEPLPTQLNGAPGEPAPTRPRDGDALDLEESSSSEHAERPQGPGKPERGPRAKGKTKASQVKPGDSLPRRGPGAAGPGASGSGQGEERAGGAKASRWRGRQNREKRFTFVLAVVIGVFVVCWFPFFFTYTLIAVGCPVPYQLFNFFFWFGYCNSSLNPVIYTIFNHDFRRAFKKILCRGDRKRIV
pIC50: −log10 of the molar value.
result type: pIC50

1. Cc1cccc(Cc2c[nH]cn2)c1C [detomidine]
8.43
2. Cc1cccc([C@@H](C)c2cnc[nH]2)c1C [1-enantiomer]
7.34
3. Cc1cccc([C@H](C)c2cnc[nH]2)c1C [d-enantiomer]
8.92
4. Cc1cccc(C(C)c2cnc[nH]2)c1C (racemic) [medetomidine]
8.48

* * *

# test system: α1 -receptors
# test: 3H-prazosin displacement, receptor binding in rat brain membranes
IC50 by entry:
result type: IC50 (µM)

1) Cc1cccc([C@H](C)c2cnc[nH]2)c1C [d-enantiomer]
55
2) Cc1cccc(C(C)c2cnc[nH]2)c1C (racemic) [medetomidine]
16.7
3) Cc1cccc([C@@H](C)c2cnc[nH]2)c1C [1-enantiomer]
190
4) Clc1cccc(Cl)c1N=C1NCCN1 [clonidine, reference compound]
6.2
